pIC50: −log10 of the molar value.
Quick note: these are pIC50 numbers for system: human 11β-HSD1 (Homo sapiens)
Sequence (P28845 whole entry): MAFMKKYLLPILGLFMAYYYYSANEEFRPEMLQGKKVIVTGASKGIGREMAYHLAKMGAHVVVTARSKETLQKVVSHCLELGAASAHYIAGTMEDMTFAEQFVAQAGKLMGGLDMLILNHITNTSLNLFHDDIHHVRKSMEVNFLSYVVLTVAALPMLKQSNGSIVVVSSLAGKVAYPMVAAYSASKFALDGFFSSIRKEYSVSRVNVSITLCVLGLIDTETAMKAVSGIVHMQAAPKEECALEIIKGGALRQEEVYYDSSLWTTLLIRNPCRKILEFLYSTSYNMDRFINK
experimental-endpoint: pIC50

compound	result
C[C@@H](c1ccc(-c2ccc(F)cc2)cc1)N1CC[C@@](CCO)(c2ccccc2)CC1=O (single isomer, unassigned) [EXAMPLE 3 Isomer 2]	> 7.00
C[C@@H](c1ccc(-c2ccc(F)cc2)cc1)N1CC[C@](CCO)(c2ccccc2)CC1=O (single isomer, unassigned) [EXAMPLE 3 Isomer 1]	> 7.00
C[C@@H](c1ccc(-c2ccn(C)c(=O)c2)cc1)N1CC[C@](CC(C)(C)O)(c2ccccc2)CC1=O	> 7.00
C[C@@H](c1ccc(-c2ccc(=O)n(C)c2)cc1)N1CC[C@@](CCCO)(c2ccc(F)cc2)CC1=O (single isomer, unassigned) [EXAMPLE 5 Isomer 2]	< 7.00
C[C@@H](c1ccc(Br)cc1)N1CC[C@](CC(C)(C)C(N)=O)(c2ccccc2)CC1=O	> 7.00
C[C@@H](c1ccc(Br)cc1)N1CC[C@@](CCO)(c2ccccc2)CC1=O (single isomer, unassigned) [EXAMPLE 2 Isomer 2]	> 7.00
